These measurements were taken from PubChem BioAssay AID827.

assay: viability loss in PTEN-deleted colon tumor cells – cell-based, HCT116, CellTiter-Glo, primary screen (AID 827); settings: HCT116 PTEN-null viability, 60 h, at 10 µM;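 also: PTEN knockout HCT116 line with beta catenin targeted HCT116 as companion control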
Screen size: about 140,000 compounds; about 1,700 (1.2%) were called active.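 The calls were made as follows: active = viability at or below a set limit, 4 SD under the median of all tested compounds (cut at about 3.7% in these data); inactive = the rest.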 For the sample, actives were picked, then their nearest neighbours and some compounds at random.
Outcome (select one): active, inactive

>  <compound>
Cn1cc([N+](=O)[O-])c(C(=O)Nc2cnn(Cc3ccc(F)cc3)c2)n1

>  <classification>
active

$$$$
>  <compound>
C=CCNC(=O)c1ccccc1NC(=O)c1ccc(Cl)c(S(=O)(=O)Nc2cccc(C)c2C)c1

>  <classification>
inactive

$$$$
>  <compound>
COc1ccccc1CNC(=O)CN1CCC(n2cnc3cc(F)ccc32)CC1

>  <classification>
inactive

$$$$

Prompt line: Tell me the recorded outcome of this test for CC(CC(=O)Nc1cc(C(F)(F)F)ccc1Cl)c1ccccc1 (stereo not drawn) .
Response line: inactive

###

experiment: viability loss in PTEN-deleted colon tumor cells – cell-based, HCT116, CellTiter-Glo, primary screen (AID 827); settings: HCT116 PTEN-null viability, 60 h, at 10 µM;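 also: PTEN knockout HCT116 line with beta catenin targeted HCT116 as companion control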
The whole screen tested about 140,000 compounds, of which about 1,700 (1.2%) were called active.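 Rule for the calls: active = viability at or below a set limit, 4 SD under the median of all tested compounds (cut at about 3.7% in these data); inactive = the rest.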 The full list was thinned out, with actives kept by preference.
// one of 1.0 for active, 0.0 for inactive, no free text

Known results for compounds:
>  <compound>
O=C(Nc1cccc2ccccc12)c1onc2c1CCCC2

>  <classification>
1.0

$$$$
>  <compound>
O=C(/C(=C/c1cccc(Cl)c1)c1nc2ccccc2[nH]1)c1ccccc1

>  <classification>
1.0

$$$$
>  <compound>
S=C(NCc1ccc(Cl)cc1)NC12CC3CC(CC(C3)C1)C2

>  <classification>
1.0

$$$$

Prompt line: Per the assay record, what outcome was assigned to Cc1nc(NCCN)c(C#N)c2c1COC(C)(C)C2 ?
Response line: 0.0

Prompt line: Also C/C(=N\NC(=O)c1ccc(CSc2nc(C)cc(C)n2)cc1)C1CCCCC1 , if possible.
Response line: 0.0

Prompt line: Next compound: Cc1nc(C)c(C(=O)Nc2cccc(C)c2C)o1
Response line: 0.0

Prompt line: Record: COc1cccc2cc(C(=O)N(C)C)c(=O)oc12
Response line: 1.0

Prompt line: Let us now turn to N=c1n(CCc2ccccc2)c2ccccc2n1Cc1ccccc1F
Response line: 1.0

Prompt line: Again, but for CC(=O)NC(C)c1nc2ccccc2n1Cc1ccccc1F (configuration not stated)
Response line: 0.0

Prompt line: Note, next up: S=C(NCc1ccc(Cl)cc1)NC1CCCCC1
Response line: 0.0

Prompt line: Next compound: CN(Cc1ccccc1)Cc1ccccc1F
Response line: 0.0

Prompt line: Now this one: C/C(=N/NS(=O)(=O)c1ccccc1)c1ccc(NC(=O)C(F)(F)F)cc1
Response line: 0.0

###

test: viability loss in PTEN-deleted colon tumor cells – cell-based, HCT116, CellTiter-Glo, primary screen (AID 827); conditions: HCT116 PTEN-null viability, 60 h, at 10 µM;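 also: PTEN knockout HCT116 line with beta catenin targeted HCT116 as companion control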
Screen size: about 140,000 compounds; about 1,700 (1.2%) were called active.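 Rule for the calls: active = viability at or below a set limit, 4 SD under the median of all tested compounds (cut at about 3.7% in these data); inactive = the rest.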 The entries come from a sample that favours actives as a whole.
API: response.call in active, inactive

>  <compound>
O=C(CCCN1C(=O)c2cccc3cccc(c23)C1=O)N1CCN(Cc2ccc3c(c2)OCO3)CC1

>  <classification>
inactive

$$$$
>  <compound>
CCn1c(SCc2ccc(C)cc2)nnc1-c1nn(-c2ccccc2)ccc1=O

>  <classification>
inactive

$$$$
>  <compound>
CCn1c(=O)cc(SCC(=O)NCCC2=CCCCC2)c2ccccc21

>  <classification>
inactive

$$$$
>  <compound>
O=[N+]([O-])c1ccc(C=Nc2ccc(Cl)cc2Cl)s1

>  <classification>
active

$$$$
>  <compound>
CC(C)(C)C(=O)N1CCC[C@@]1(CO)C(=O)O

>  <classification>
inactive

$$$$
>  <compound>
CCC(C)NCCOCCOc1ccc(Br)cc1C (stereo not given)

>  <classification>
inactive

$$$$

Prompt line: Which outcome was assigned to CC(=O)c1ccc(NC(=S)NC(=O)CC(C)C)cc1 in this test?
Response line: inactive

Prompt line: Cool, now COC(=O)NNC(=O)C1CCC(C)CC1 (stereo not given)
Response line: inactive

Prompt line: Please do the same for COc1ccc(C/C(C)=N/NC(=O)c2cc(C)oc2C)cc1 as well.
Response line: inactive

Prompt line: Next up: CCc1nnc(NC(=O)[C@@H](NC(=O)c2cccc(C)c2)C(C)C)s1
Response line: inactive

Prompt line: // query: CNC(=S)N/N=C/c1cn(Cc2ccc(C)cc2)c2ccccc12
Response line: inactive

Prompt line: Now the same for CCOc1ccc2nc(Nc3nc4ccc(NC(C)=O)cc4s3)sc2c1
Response line: inactive

Prompt line: Do the same for c1ccc2c(c1)C(=NC1CCCCC1)NC2=NC1CCCCC1 please
Response line: active

Prompt line: What do you have for COc1cccc(N(C(=O)C2COc3ccccc3O2)C(C(=O)NC2CCCCC2)c2ccc(O)cc2)c1 (stereo not given) ?
Response line: inactive

Prompt line: Follow-up entry: CC(Nc1nc(N2CCCC2)nc2ccccc12)c1ccccc1 (stereo not given)
Response line: active

Prompt line: Repeat for the following compound: COc1ccccc1N1CCN(Cc2nnnn2CCc2ccccc2)CC1
Response line: inactive
